Answer each item with its documented pIC50.
Target: recombinant WT HIV-1 RT (Human immunodeficiency virus type 1 group M subtype B, UniProt P03367)
Construct: The p66/p51 HIV-1 RT heterodimer engineered with a N-terminal histidine tag; His tag (histidine tag) (N); made in house; host or cells: Escherichia coli strain M15 (vector pRT6H-PR)
Experiment: biochemical
Details: RT Inhibition—IC50 ± SEM, WT, WT RT DDDP activity; PicoGreen or 33P radiolabeled assay, value not marked as PicoGreen; n ≥ 2
pIC50: −log10 of the molar value.

[ask] Query (compound): CCOC(=O)c1cnn2ccc(N)cc12 ; field requested: pIC50
[reply] < 3.00

[ask] Please do the same for CCOC(=O)c1cnn2cccc(Br)c12 as well.
[reply] 3.80

[ask] Please do the same for CCOC(=O)c1cnn2cccc(C)c12 as well.
[reply] 3.36

[ask] Please do the same for CCOC(=O)c1cnn2cccc(C#CCCO)c12 as well.
[reply] < 3.00

[ask] Please do the same for CCNC(=O)c1cnn2cccc(Br)c12 as well.
[reply] < 3.00

[ask] Please do the same for CCOC(=O)c1cnn2cc(Br)ccc12 as well.
[reply] < 3.00

[ask] Please do the same for CCOC(=O)c1cnn2c(C)cccc12 as well.
[reply] 3.33

[ask] Please do the same for CCOC(=O)c1cnn2cccc(C#CCCCCCO)c12 as well.
[reply] 4.62

[ask] Please do the same for CCCC#Cc1cccn2ncc(C(=O)OCC)c12 as well.
[reply] 4.28

[ask] Please do the same for O=C(O)c1cnn2cccc(Br)c12 as well.
[reply] < 3.00

[ask] Please do the same for CCOC(=O)c1cnn2ccc(C(=O)OC)cc12 as well.
[reply] < 3.00

[ask] Please do the same for CCOC(=O)c1cnn2ccc(NC(=O)OC(C)(C)C)cc12 as well.
[reply] < 3.00

[ask] Please do the same for CCOC(=O)c1cnn2cccc(C#CC3CC3)c12 as well.
[reply] 4.96

[ask] Please do the same for CCOC(=O)c1cnn2cccc(C#CCN(C)C)c12 as well.
[reply] < 3.00

[ask] Please do the same for CCOC(=O)c1cnn2ccc(C)cc12 as well.
[reply] < 3.00

[ask] Please do the same for CCOC(=O)c1cnn2cc(C)ccc12 as well.
[reply] < 3.00

[ask] Please do the same for C#Cc1cccn2ncc(C(=O)OCC)c12 as well.
[reply] 4.57

[ask] Please do the same for CCOC(=O)c1cnn2c(C)cc(Cl)cc12 as well.
[reply] < 3.00

[ask] Please do the same for CCOC(=O)c1cnn2cc(Br)cc(OC)c12 as well.
[reply] < 3.00

* * *

Answer each item with its documented IC50.
Biological target: HIV-1 RT K103N/Y181C mutant (Human immunodeficiency virus type 1 group M subtype B, UniProt P03367, K702N/Y780C)
Construct: The p66/p51 HIV-1 RT heterodimer engineered with a N-terminal histidine tag; His tag (histidine tag) (N)
Assay: DDDP activity assay, K103N/Y181C RT mutant
Numbers only here, please. The scale is µM.

[ask] Query (compound): CCOC(=O)c1cnn2cccc(C#CCCCCCO)c12 ; field requested: IC50
[reply] 35

[ask] Please do the same for CCOC(=O)c1cnn2ccccc12 [compound B-1, reference compound] as well.
[reply] 208

[ask] Please do the same for CCCC#Cc1cccn2ncc(C(=O)OCC)c12 as well.
[reply] 105

[ask] Please do the same for C#Cc1cccn2ncc(C(=O)OCC)c12 as well.
[reply] 43

[ask] Please do the same for CCOC(=O)c1cnn2cccc(C#CC3CC3)c12 as well.
[reply] 34

* * *

Biological target: His-tagged HIV-1 RT K103N/Y181C (Human immunodeficiency virus type 1 group M subtype B, UniProt P03367, K702N/Y780C)
Construct: The p66/p51 HIV-1 RT heterodimer engineered with a N-terminal histidine tag; His tag (histidine tag) (N); made in house; host or cells: Escherichia coli strain M15 (vector pRT6H-PR)
Assay: Surface plasmon resonance, K103N/Y181C RT
Format: binding
measured property: Kd

[ask] Query (compound): CCOC(=O)c1cnn2cccc(C#CC3CC3)c12 [compound 27] ; field requested: Kd
[reply] 187 µM

* * *

Target: HIV-1 RT K103N mutant (Human immunodeficiency virus type 1 group M subtype B, UniProt P03367, K702N)
Construct: The p66/p51 HIV-1 RT heterodimer engineered with a N-terminal histidine tag; His tag (histidine tag) (N)
Assay: DDDP activity assay, K103N RT mutant
Settings: PicoGreen or 33P radiolabeled assay, n ≥ 2, read-out: RT Inhibition—IC50 ± SEM, K103N
Experimental: The inhibitory activity of all compounds was evaluated in vitro in assays that measure the DNA-dependent DNA polymerase (DDDP) activity of HIV-1 RT. […] The IC50 value of nevirapine was determined in parallel to control for the performance of the assay. […] Initially, compound IC50 values were determined in an assay that quantifies DDDP activity mediated by HIV-1 RT using a radiolabeled ^33PdTTP substrate and more recently using a nonradioactive PicoGreen-based spectrophotometric assay. […]
measured property: pIC50
Reminder that pIC50 is minus the log10 of a molar concentration.

[ask] Query (compound): CCOC(=O)c1cnn2cccc(Br)c12 ; field requested: pIC50
[reply] 3.07

* * *

Molecular target: His-tagged HIV-1 RT K103N (Human immunodeficiency virus type 1 group M subtype B, UniProt P03367, K702N)
Construct: The p66/p51 HIV-1 RT heterodimer engineered with a N-terminal histidine tag; His tag (histidine tag) (N)
Assay: Surface plasmon resonance, K103N RT
Settings: ± standard error of dose–response fit, n = 1; NB = no binding observed; read-out: SPR—KD, K103N
Description: Compound binding to recombinant HIV-1 RT was measured by surface plasmon resonance (SPR). […] SPR assays were performed on a Biacore S200 (GE Healthcare). […] Raw sensorgram data were analyzed using Biacore S200 Evaluation Software. Dose-response determinations were evaluated using a 1:1 binding model. KD values were determined by Biacore S200 Evaluation Software Version 1.0. assuming 1:1 binding. […]
pKd: −log10 of the molar value.
Outcome: 1.0 for pKd of at least 3; 0.0 for anything lower.

[ask] Evaluate CCOC(=O)c1cnn2cccc(C#CCCCCCO)c12 [compound 26] : pKd at minimum 3?
[reply] 1.0

[ask] Please do the same for CCOC(=O)c1cnn2ccc(N)cc12 [compound 8] as well.
[reply] 1.0

[ask] Please do the same for CCOC(=O)c1cnn2cccc(Br)c12 [compound 6] as well.
[reply] 0.0

[ask] Please do the same for CCOC(=O)c1cnn2cc(OC)cc(Br)c12 [compound 10] as well.
[reply] 1.0

[ask] Please do the same for CCOC(=O)c1cnn2cccc(C#CC3CC3)c12 [compound 27] as well.
[reply] 1.0

* * *

Target: recombinant WT HIV-1 RT (Human immunodeficiency virus type 1 group M subtype B, UniProt P03367)
Construct: The p66/p51 HIV-1 RT heterodimer engineered with a N-terminal histidine tag; His tag (histidine tag) (N); made in house; host or cells: Escherichia coli strain M15 (vector pRT6H-PR)
Assay: biochemical
Conditions: binding to WT RT; LE = −1.4(logIC50)/N
measured property: Ligand efficiency (LE)

[ask] Query (molecule): CCOC(=O)c1cnn2cccc(Br)c12 ; field requested: Ligand efficiency (LE)
[reply] 0.35 kcal/mol/HA

[ask] Please do the same for CCOC(=O)c1cnn2cccc(C#CCCCCCO)c12 as well.
[reply] 0.30 kcal/mol/HA

[ask] Please do the same for CCOC(=O)c1cnn2cccc(C)c12 as well.
[reply] 0.31 kcal/mol/HA

[ask] Please do the same for CCOC(=O)c1cnn2cc(OC)cc(Br)c12 as well.
[reply] 0.29 kcal/mol/HA

[ask] Please do the same for C#Cc1cccn2ncc(C(=O)OCC)c12 as well.
[reply] 0.40 kcal/mol/HA

[ask] Please do the same for CCOC(=O)c1cnn2cccc(C#CC3CC3)c12 as well.
[reply] 0.37 kcal/mol/HA

* * *

Biological target: recombinant WT HIV-1 RT (Human immunodeficiency virus type 1 group M subtype B, UniProt P03367)
Construct: The p66/p51 HIV-1 RT heterodimer engineered with a N-terminal histidine tag; His tag (histidine tag) (N); made in house; host or cells: Escherichia coli strain M15 (vector pRT6H-PR)
Assay: biochemical
Details: binding to WT RT; LE = −1.4(logIC50)/N
measured property: Ligand efficiency (LE) (kcal/mol/HA)
Numbers only here, please. The scale is kcal/mol/HA.

[ask] Query (compound): CCOC(=O)c1cnn2c(C)cccc12 ; field requested: Ligand efficiency (LE)
[reply] 0.31

[ask] Please do the same for CCCC#Cc1cccn2ncc(C(=O)OCC)c12 as well.
[reply] 0.32

[ask] Please do the same for CCOC(=O)c1cnn2c(C)ccc(Br)c12 as well.
[reply] 0.33

* * *

Target: His-tagged HIV-1 RT WT (Human immunodeficiency virus type 1 group M subtype B)
Construct: The p66/p51 HIV-1 RT heterodimer engineered with a N-terminal histidine tag; His tag (histidine tag) (N); made in house; host or cells: Escherichia coli strain M15 (vector pRT6H-PR)
Test: Surface plasmon resonance, WT RT
Assay type: binding
Answer each item with its documented pKd.
Reminder that pKd is minus the log10 of a molar concentration.

[ask] Query (molecule): CCOC(=O)c1cnn2cccc(C#CCCCCCO)c12 [compound 26] ; field requested: pKd
[reply] 3.76

[ask] Please do the same for CCOC(=O)c1cnn2cccc(Br)c12 [compound 6] as well.
[reply] 3.22

[ask] Please do the same for CCOC(=O)c1cnn2cccc(C#CC3CC3)c12 [compound 27] as well.
[reply] 4.10

[ask] Please do the same for C#Cc1cccn2ncc(C(=O)OCC)c12 [compound 29] as well.
[reply] 3.40

[ask] Please do the same for CCOC(=O)c1cnn2ccc(N)cc12 [compound 8] as well.
[reply] 3.28

[ask] Please do the same for CCOC(=O)c1cnn2cccc(C)c12 [compound 2] as well.
[reply] 3.46

[ask] Please do the same for CCOC(=O)c1cnn2cc(OC)cc(Br)c12 [compound 10] as well.
[reply] 2.80

[ask] Please do the same for CCCC#Cc1cccn2ncc(C(=O)OCC)c12 [compound 28] as well.
[reply] 3.56
